# target: Voltage-gated inwardly rectifying potassium channel KCNH2 (Homo sapiens)
# Sequence (Q12809 whole entry): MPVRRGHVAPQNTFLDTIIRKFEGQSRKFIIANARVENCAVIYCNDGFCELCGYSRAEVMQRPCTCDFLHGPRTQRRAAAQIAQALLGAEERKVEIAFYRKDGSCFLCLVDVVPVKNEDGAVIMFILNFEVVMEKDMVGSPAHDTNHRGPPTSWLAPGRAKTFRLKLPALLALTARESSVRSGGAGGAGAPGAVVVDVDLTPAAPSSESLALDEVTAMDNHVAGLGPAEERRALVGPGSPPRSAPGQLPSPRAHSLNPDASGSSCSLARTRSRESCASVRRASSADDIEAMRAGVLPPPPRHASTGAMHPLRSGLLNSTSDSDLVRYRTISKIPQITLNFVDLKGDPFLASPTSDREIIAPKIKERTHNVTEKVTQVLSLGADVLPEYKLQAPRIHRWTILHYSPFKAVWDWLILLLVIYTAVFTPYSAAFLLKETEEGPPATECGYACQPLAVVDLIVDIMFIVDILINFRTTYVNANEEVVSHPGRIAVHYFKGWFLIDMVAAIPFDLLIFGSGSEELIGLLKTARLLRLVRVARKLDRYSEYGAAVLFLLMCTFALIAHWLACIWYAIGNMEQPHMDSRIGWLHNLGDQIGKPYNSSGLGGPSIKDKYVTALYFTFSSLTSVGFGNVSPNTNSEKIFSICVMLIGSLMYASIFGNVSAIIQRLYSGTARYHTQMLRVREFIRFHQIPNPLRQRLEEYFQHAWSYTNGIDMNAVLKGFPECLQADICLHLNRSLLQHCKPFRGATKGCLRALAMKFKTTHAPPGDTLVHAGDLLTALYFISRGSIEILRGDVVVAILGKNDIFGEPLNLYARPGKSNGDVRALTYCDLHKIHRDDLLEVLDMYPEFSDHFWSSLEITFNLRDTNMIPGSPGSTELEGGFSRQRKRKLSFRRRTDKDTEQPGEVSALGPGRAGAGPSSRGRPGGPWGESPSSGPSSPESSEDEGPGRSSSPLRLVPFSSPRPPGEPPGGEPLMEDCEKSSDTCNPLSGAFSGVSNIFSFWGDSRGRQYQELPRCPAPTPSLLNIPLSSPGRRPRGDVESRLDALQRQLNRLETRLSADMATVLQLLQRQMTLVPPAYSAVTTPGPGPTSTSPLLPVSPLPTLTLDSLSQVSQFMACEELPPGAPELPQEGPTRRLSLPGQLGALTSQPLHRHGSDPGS
# assay.explanation: Inhibition of human ERG by automated patch clamp assay
pIC50: −log10 of the molar value.
Consider the following compounds; for each one, report its pIC50.

# pIC50 (compound: O=C(/C=C/c1ccc2c(c1)CN(C(=O)C1CC1)C2)NO ) is < 4.52

# pIC50 (compound: O=C(/C=C/c1ccc2c(c1)CN(S(=O)(=O)C1CC1)C2)NO ) is < 4.52

# pIC50 (compound: COc1ccc(S(=O)(=O)N2Cc3ccc(/C=C/C(=O)NO)cc3C2)cc1 ) is < 4.52

# pIC50 (compound: O=C(/C=C/c1ccc2c(c1)CN(S(=O)(=O)c1ccncc1)C2)NO ) is < 4.52

# pIC50 (compound: Cc1[nH]c2ccccc2c1CC(=O)N1Cc2ccc(/C=C/C(=O)NO)cc2C1 ) is < 4.52

# pIC50 (compound: Cc1ccc(S(=O)(=O)N2Cc3ccc(/C=C/C(=O)NO)cc3C2)cc1 ) is < 4.52

# pIC50 (compound: CC(C)(C)C(=O)N1Cc2ccc(/C=C/C(=O)NO)cc2C1 ) is < 4.52

# pIC50 (compound: Cc1cccc(S(=O)(=O)N2Cc3ccc(/C=C/C(=O)NO)cc3C2)c1 ) is < 4.52

# pIC50 (compound: O=C(/C=C/c1ccc2c(c1)CN(C(=O)c1cccnc1)C2)NO ) is < 4.52

# pIC50 (compound: Cc1[nH]c2ccccc2c1CCN1Cc2ccc(/C=C/C(=O)NO)cc2C1 ) is 5.32

# pIC50 (compound: O=C(/C=C/c1ccc2c(c1)CN(S(=O)(=O)c1cccc(C(F)(F)F)c1)C2)NO ) is < 4.52

# pIC50 (compound: CC(C)(C)OC(=O)N1Cc2ccc(/C=C/C(=O)NO)cc2C1 ) is < 4.52

# pIC50 (compound: O=C(/C=C/c1ccc2c(c1)CN(CCc1cnn3ccccc13)C2)NO ) is 5.28

----------
reported.property: log10 IC50 (log10 of the value in nM)
Hey, these are logged values: log10 of IC50, nM being the unit before logging.

Tested system Histone deacetylase 1 (Homo sapiens, UniProt Q13547); log10 IC50 recorded for Cc1[nH]c2ccccc2c1CCN1Cc2ccc(/C=C/C(=O)NO)cc2C1 was 1.41

Tested system Histone deacetylase 1 (Homo sapiens, UniProt Q13547); log10 IC50 recorded for O=C(/C=C/c1ccc2c(c1)CN(S(=O)(=O)Cc1ccccc1)C2)NO was 2.08

Tested system Histone deacetylase 1 (Homo sapiens, UniProt Q13547); log10 IC50 recorded for O=C(/C=C/c1ccc2c(c1)CN(C(=O)C1CCCC1)C2)NO was 2.54

Tested system Histone deacetylase 1 (Homo sapiens, UniProt Q13547); log10 IC50 recorded for CC(C)(C)C(=O)N1Cc2ccc(/C=C/C(=O)NO)cc2C1 was 2.62

Tested system Histone deacetylase 1 (Homo sapiens, UniProt Q13547); log10 IC50 recorded for O=C(/C=C/c1ccc2c(c1)CN(S(=O)(=O)c1ccccc1)C2)NO was 2.28

Tested system Histone deacetylase 1 (Homo sapiens, UniProt Q13547); log10 IC50 recorded for O=C(/C=C/c1ccc2c(c1)CN(C(=O)c1cccnc1)C2)NO was 2.58

Tested system Histone deacetylase 1 (Homo sapiens, UniProt Q13547); log10 IC50 recorded for Cc1cccc(S(=O)(=O)N2Cc3ccc(/C=C/C(=O)NO)cc3C2)c1 was 1.79

Measured values drawn from ChEMBL document CHEMBL1806458 for this set.
